Would you kindly list Ki for each of these molecules?
# MEASURED ON: Glutamate receptor ionotropic, AMPA (Rattus norvegicus, UniProt P19490+P19491+P19492+P19493)
# METHOD: Binding affinity at ionotropic glutamate receptor AMPA in rat cortical membranes [3H]AMPA displacement.
One number for each entry, in µM.

Please go through the list and note Ki for each molecule.
1. O=C(O)c1nc2c(O)nc3ccc(-n4cnnc4)cc3n2n1
2. O=C(O)c1nc2c(O)nc3cc(-n4cnnc4)ccc3n2n1
3. Nc1cc2c(cc1Cl)nc(O)c1nc(C(=O)O)nn12

Reply:
1: 17.2; 2: 4.3; 3: 4.9

---

# MEASURED ON: Glutamate receptor ionotropic, kainate
# METHOD: Inhibition of [3H]KA binding to kainate receptor of rat brain membranes
Would you kindly list IC50 for each of these molecules?

Example entries begin here.
- MOLECULAR STRING: "CCOC(=O)c1nc2c(=O)[nH]c3cc(Cl)c(N)cc3n2n1"
  IC50: "84 µM"
- MOLECULAR STRING: "O=C(O)c1nc2c(=O)[nH]c3cc(Cl)c(-n4cccn4)cc3n2n1"
  IC50: "20 µM"
- MOLECULAR STRING: "Nc1cc2c(cc1Cl)nc(O)c1nc(C(=O)O)nn12"
  IC50: "22.4 µM"
- MOLECULAR STRING: "CCOC(=O)c1nc2c(O)nc3cc(Cl)c(-n4ccc(C=O)c4)cc3n2n1"
  IC50: "88 µM"
- MOLECULAR STRING: "O=C(O)c1nc2c(O)nc3cc(Cl)c(-n4cccc4)cc3n2n1"
  IC50: "36 µM"

Please go through the list and note IC50 for each molecule.
1. Nc1ccc2nc(O)c3nc(C(=O)O)nn3c2c1
2. O=C(O)c1nc2c(O)nc3ccc(-n4cnnc4)cc3n2n1
3. O=Cc1ccn(-c2cc3c(cc2Cl)nc(O)c2nc(C(=O)O)nn23)c1

Reply:
1: 81 µM; 2: 90 µM; 3: 8.9 µM

---

# METHOD: Inhibition of specific binding of [3H]KA against iGluRs
READOUT LABEL: IC50 (µM)
One number for each entry, in µM.

Task item: Please give measured IC50 of the following entry: O=C(O)c1nc2c(O)nc3cc(Cl)c(-n4cncn4)cc3n2n1
Reply: 48

---

# MEASURED ON: Glutamate NMDA receptor
# METHOD: Ability to displace [3H]glycine from NMDA receptor in rat corticaln membranes
# Format: cell membranes
READOUT LABEL: Ki
Write the numeric value and append its unit.

- MOLECULAR STRING: "CCOC(=O)c1nc2c(=O)[nH]c3cc(Cl)c(N)cc3n2n1"
  Ki: "4.8 µM"
- MOLECULAR STRING: "O=C(O)c1nc2c(=O)[nH]c3cc(Cl)c(-n4cccn4)cc3n2n1"
  Ki: "5.3 µM"
- MOLECULAR STRING: "O=C(O)c1cc(O)c2c(Cl)cc(Cl)cc2n1"
  Ki: "0.09 µM"
- MOLECULAR STRING: "Nc1cc2c(cc1Cl)nc(O)c1nc(C(=O)O)nn12"
  Ki: "3.6 µM"
- MOLECULAR STRING: "O=C(O)c1nc2c(O)nc3cc(Cl)c(-n4cnnc4)cc3n2n1"
  Ki: "33.5 µM"

Proceed to the following item.
Task item: Please give measured Ki of the following entry: O=C(O)c1nc2c(O)nc3ccc([N+](=O)[O-])cc3n2n1
Reply: 79.4 µM
